- Assay system: the molecule itself
- Assay protocol: SEC; Superdex 200 10/300 GL, buffer A (10 mM Tris-HCl pH 7.5, 100 mM NaCl, 0.52% HEGA-10); detergent-solubilised protein
I'd appreciate it if you could supply stoichiometry N values for the items below.
Just the number.

State its stoichiometry N for this protein: NavMs-pore+CTD A221C, PROXYL spin-labelled (domain or fragment, Magnetococcus marinus MC-1, UniProt A0L5S6 130-274, looked up, 3-(2-iodoacetamido)-PROXYL nitroxide spin label on cysteine 221, source: E. coli C41(DE3), purified (HisTrap HP, thrombin, size exclusion), spin-labelled) GVGSVAALLTVVFYIAAVMATNLYGATFPEWFGDLSKSLYTLFQVMTLESWSMGIVRPVMNVHPNAWVFFIPFIMLTTFTVLNLFIGIIVDCMAITKEQEEEAKTGHHQEPISQTLLHLGDRLDRIEKQLAQNNELLQRQQPQKK
4

Tell me its stoichiometry N given NavMs-pore+CTD R268C, PROXYL spin-labelled (domain or fragment, Magnetococcus marinus MC-1, UniProt A0L5S6 130-274, looked up, 3-(2-iodoacetamido)-PROXYL nitroxide spin label on cysteine 268, source: E. coli C41(DE3), purified (HisTrap HP, thrombin, size exclusion), spin-labelled) GVGSVAALLTVVFYIAAVMATNLYGATFPEWFGDLSKSLYTLFQVMTLESWSMGIVRPVMNVHPNAWVFFIPFIMLTTFTVLNLFIGIIVDAMAITKEQEEEAKTGHHQEPISQTLLHLGDRLDRIEKQLAQNNELLQCQQPQKK as the entry.
4

Return reported stoichiometry N. Input protein: NavMs-pore+CTD A221C/D250C double mutant, PROXYL spin-labelled (domain or fragment, Magnetococcus marinus MC-1, UniProt A0L5S6 130-274, looked up, 3-(2-iodoacetamido)-PROXYL nitroxide spin labels on cysteines 221 and 250, source: E. coli C41(DE3), purified (HisTrap HP, thrombin, size exclusion), spin-labelled) GVGSVAALLTVVFYIAAVMATNLYGATFPEWFGDLSKSLYTLFQVMTLESWSMGIVRPVMNVHPNAWVFFIPFIMLTTFTVLNLFIGIIVDCMAITKEQEEEAKTGHHQEPISQTLLHLGCRLDRIEKQLAQNNELLQRQQPQKK
4
